- assayed.system: CXCR4 receptor (human, UniProt P61073 1-352)
- Sequence (P61073 whole entry): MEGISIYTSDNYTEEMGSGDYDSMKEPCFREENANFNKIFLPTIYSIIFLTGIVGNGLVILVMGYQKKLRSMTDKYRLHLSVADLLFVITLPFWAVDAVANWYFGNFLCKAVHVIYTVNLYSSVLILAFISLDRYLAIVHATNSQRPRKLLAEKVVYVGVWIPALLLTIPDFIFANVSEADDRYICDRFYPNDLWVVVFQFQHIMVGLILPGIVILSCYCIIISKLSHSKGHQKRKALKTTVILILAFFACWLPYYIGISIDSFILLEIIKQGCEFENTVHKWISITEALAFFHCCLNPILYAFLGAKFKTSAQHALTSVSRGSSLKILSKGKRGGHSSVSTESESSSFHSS
- assay.name: cell-based or functional assay
* marks the point of attachment. Palmitoyl = CCCCCCCCCCCCCCCC(=O)*
property.label: Peak Ratio, CHTX, SUP B-15, 1.0 uM
Format: numeric value only, no unit, no commentary.

IN: Name the recorded Peak Ratio, CHTX, SUP B-15, 1.0 uM for Palmitoyl-MGYQKKLRSMTDKY-NH2 (SMILES CCCCCCCCCCCCCCCC(=O)N[C@@H](CCSC)C(=O)NCC(=O)N[C@@H](Cc1ccc(O)cc1)C(=O)N[C@@H](CCC(N)=O)C(=O)N[C@@H](CCCCN)C(=O)N[C@@H](CCCCN)C(=O)N[C@@H](CC(C)C)C(=O)N[C@@H](CCCNC(=N)N)C(=O)N[C@@H](CO)C(=O)N[C@@H](CCSC)C(=O)N[C@H](C(=O)N[C@@H](CC(=O)O)C(=O)N[C@@H](CCCCN)C(=O)N[C@@H](Cc1ccc(O)cc1)C(N)=O)[C@@H](C)O) [CXCR4 i1 loop compound 37] .
OUT: 0.2

IN: Name the recorded Peak Ratio, CHTX, SUP B-15, 1.0 uM for Palmitoyl-KKLRSMTDKYRLHLSV-NH2 (SMILES CCCCCCCCCCCCCCCC(=O)N[C@@H](CCCCN)C(=O)N[C@@H](CCCCN)C(=O)N[C@@H](CC(C)C)C(=O)N[C@@H](CCCNC(=N)N)C(=O)N[C@@H](CO)C(=O)N[C@@H](CCSC)C(=O)N[C@H](C(=O)N[C@@H](CC(=O)O)C(=O)N[C@@H](CCCCN)C(=O)N[C@@H](Cc1ccc(O)cc1)C(=O)N[C@@H](CCCNC(=N)N)C(=O)N[C@@H](CC(C)C)C(=O)N[C@@H](Cc1c[nH]cn1)C(=O)N[C@@H](CC(C)C)C(=O)N[C@@H](CO)C(=O)N[C@H](C(N)=O)C(C)C)[C@@H](C)O) [CXCR4 i1 loop compound 41] .
OUT: 0.04

All values here come from patent US20130210709A1.
